This collection of values is drawn from patent US20250066343A1.

- systemName: Monoamine oxidase B (MAO-B) (Homo sapiens, UniProt P27338)
- Sequence (P27338 1-520): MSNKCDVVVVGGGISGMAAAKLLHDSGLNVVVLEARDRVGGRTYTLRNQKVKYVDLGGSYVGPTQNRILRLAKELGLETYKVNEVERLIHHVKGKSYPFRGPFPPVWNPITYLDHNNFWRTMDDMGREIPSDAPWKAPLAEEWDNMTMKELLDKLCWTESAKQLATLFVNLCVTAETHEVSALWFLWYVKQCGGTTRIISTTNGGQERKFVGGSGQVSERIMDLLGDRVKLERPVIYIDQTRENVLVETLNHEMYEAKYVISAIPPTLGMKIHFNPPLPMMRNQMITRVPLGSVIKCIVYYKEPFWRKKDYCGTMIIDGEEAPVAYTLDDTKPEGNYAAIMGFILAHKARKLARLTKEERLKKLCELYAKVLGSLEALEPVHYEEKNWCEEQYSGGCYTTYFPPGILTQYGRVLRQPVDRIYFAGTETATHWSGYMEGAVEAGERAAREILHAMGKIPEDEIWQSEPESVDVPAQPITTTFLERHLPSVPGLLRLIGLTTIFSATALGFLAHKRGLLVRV
measureName: IC50 (µM)
Could you give me the number in µM? Just the number is fine.

Some entries whose results are on file:
C#CCNC(=O)c1c(CCCCC)cc2c(c1O)C=CC(C)(CCC=C(C)C)O2 (stereo not shown)	79.7
CCCCCc1cc2c(c(O)c1C(=O)Nc1ccc(-c3ccc(F)cc3)cc1)C=CC(C)(CCC=C(C)C)O2 (stereo not shown)	7.1
CCCCCc1cc2c(c(O)c1C(=O)NC1CCN(C)CC1)C=CC(C)(CCC=C(C)C)O2 (stereo not shown)	131

Next compound, IC50 to be filled in.
Ask | Data request, read-out IC50, for CCCCCc1cc2c(c(O)c1C(=O)Nc1ccccc1)C=CC(C)(CCC=C(C)C)O2 (stereo not shown)
Reply | 176

* * *

The following compounds each carry a recorded pIC50 for Butyrylcholinesterase (BuChE) (Homo sapiens, UniProt P06276).
Value format note: pIC50 is -log10 of concentration (mol/L); just state the number.

Ask | Notebook entry, Butyrylcholinesterase (BuChE) (Homo sapiens, UniProt P06276) assay: pIC50 of CCCCCc1cc2c(c(O)c1C(=O)NC1Cc3ccccc3C1)C=CC(C)(CCC=C(C)C)O2 (stereo not drawn) [Compound 4aa] = ?
Reply | 3.79

Ask | Notebook entry, Butyrylcholinesterase (BuChE) (Homo sapiens, UniProt P06276) assay: pIC50 of CCCCCc1cc2c(c(O)c1C(=O)NC1CCCC1)C=CC(C)(CCC=C(C)C)O2 (stereo not drawn) [Compound 4e] = ?
Reply | 6.40

Ask | Notebook entry, Butyrylcholinesterase (BuChE) (Homo sapiens, UniProt P06276) assay: pIC50 of CCCCCc1cc2c(c(O)c1C(=O)N1CCN(CCO)CC1)C=CC(C)(CCC=C(C)C)O2 (stereo not drawn) [Compound 4ae] = ?
Reply | 4.14

* * *

- systemName: UniProtKB P27338
- Sequence (P27338 1-520): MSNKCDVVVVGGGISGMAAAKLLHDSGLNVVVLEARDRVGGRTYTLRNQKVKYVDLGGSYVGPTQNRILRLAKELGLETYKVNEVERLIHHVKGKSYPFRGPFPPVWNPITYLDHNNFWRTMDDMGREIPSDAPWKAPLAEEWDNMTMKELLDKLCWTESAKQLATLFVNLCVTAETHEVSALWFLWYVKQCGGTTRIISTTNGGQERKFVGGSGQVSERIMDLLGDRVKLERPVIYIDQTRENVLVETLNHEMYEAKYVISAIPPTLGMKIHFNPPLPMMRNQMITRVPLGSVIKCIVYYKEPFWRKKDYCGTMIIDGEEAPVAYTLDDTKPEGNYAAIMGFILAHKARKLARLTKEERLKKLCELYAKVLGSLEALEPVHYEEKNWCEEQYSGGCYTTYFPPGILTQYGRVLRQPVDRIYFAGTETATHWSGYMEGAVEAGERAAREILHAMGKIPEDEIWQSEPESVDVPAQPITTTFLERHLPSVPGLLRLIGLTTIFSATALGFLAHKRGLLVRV
pIC50: −log10 of the molar value.
Label condition met for high-side pIC50 (at or above 4) and condition not met for low-side pIC50 (below it).

Ask | // inclusive: pIC50 at least 4? input: CCCCCc1cc2c(c(O)c1C(=O)N1CCN(CCO)CC1)C=CC(C)(CCC=C(C)C)O2 (centres unmarked) [Compound 4ae]
Reply | condition met

Ask | // inclusive: pIC50 at least 4? input: CCCCCc1cc2c(c(O)c1C(=O)NC1CCN(S(C)(=O)=O)CC1)C=CC(C)(CCC=C(C)C)O2 (centres unmarked) [Compound 4o]
Reply | condition met
